# TEST TARGET: HLA-A*68:23
# TEST PROTOCOL: IEDB peptide-MHC binding, purified MHC/competitive/fluorescence; filed as Kd, often an IC50 or EC50 that approximates it; bounds were set here for any values at or beyond the usual limits of such assays
# COND: source organism: Yersinia pseudotuberculosis IP 31758
pKd: −log10 of the molar value.
MEASURE NAME: pKd

- RQMRASAPL: 8.62

* * *

# TEST TARGET: HLA-A*02:03
# TEST PROTOCOL: IEDB peptide-MHC binding, purified MHC/competitive/radioactivity; filed as Kd, often an IC50 or EC50 that approximates it; bounds were set here for any values at or beyond the usual limits of such assays
# COND: source organism: Dengue virus 2 Jamaica/1409/1983
pKd: −log10 of the molar value.
The following sequences are listed with their measured pKd values.
MEASURE NAME: pKd

• RVILAGPMPV = 8.11
• FLFLMSGKGI = 7.94
• KLASAIQKA = 7.75
• ALIFILLTAV = 7.88

* * *

# TEST TARGET: HLA-A*29:02
# TEST PROTOCOL: IEDB peptide-MHC binding, purified MHC/direct/fluorescence; filed as Kd, often an IC50 or EC50 that approximates it; bounds were set here for any values at or beyond the usual limits of such assays
# COND: source organism: Ebola virus Yambio0403
MEASURE NAME: Kd

- ESLLHQASW: ≥ 20 µM

* * *

# TEST TARGET: HLA-A*23:01
# TEST PROTOCOL: IEDB peptide-MHC binding, purified MHC/competitive/radioactivity; filed as Kd, often an IC50 or EC50 that approximates it; bounds were set here for any values at or beyond the usual limits of such assays
# COND: source organism: Dengue virus 3 Martinique/1243/1999
pKd: −log10 of the molar value.
MEASURE NAME: pKd

- WFFDLPLPW: 7.62
- TYQNKVVKV: 5.19

* * *

# TEST TARGET: HLA-A*02:01
# TEST PROTOCOL: IEDB peptide-MHC binding, purified MHC/competitive/radioactivity; filed as Kd, often an IC50 or EC50 that approximates it; bounds were set here for any values at or beyond the usual limits of such assays
# COND: source organism: Dengue virus 3 China/80-2/1980
Listed sequences paired with reported Kd
MEASURE NAME: Kd

- MIAGVLFTFV: 10.7 nM
- YLDVDLHPA: 4.42 nM

* * *

# TEST TARGET: HLA-A*33:01
# TEST PROTOCOL: IEDB peptide-MHC binding, purified MHC/competitive/radioactivity; filed as Kd, often an IC50 or EC50 that approximates it; bounds were set here for any values at or beyond the usual limits of such assays
# COND: source organism: Dengue virus 1 Brazil/97-11/1997
MEASURE NAME: Kd (nM)

* DTMTYKCPR | 6.64

* * *

# TEST TARGET: HLA-A*02:19
# TEST PROTOCOL: IEDB peptide-MHC binding, purified MHC/competitive/fluorescence; filed as Kd, often an IC50 or EC50 that approximates it; bounds were set here for any values at or beyond the usual limits of such assays
# COND: source organism: Giardia lamblia ATCC 50803
MEASURE NAME: Kd

* LLDDGWAGE | ≥ 20 µM

* * *

# TEST TARGET: HLA-A*26:01
# TEST PROTOCOL: IEDB peptide-MHC binding, purified MHC/competitive/fluorescence; filed as Kd, often an IC50 or EC50 that approximates it; bounds were set here for any values at or beyond the usual limits of such assays
# COND: source organism: Vibrio parahaemolyticus RIMD 2210633
MEASURE NAME: Kd (nM)

- ILRPLGIEY: 478

* * *

# TEST TARGET: HLA-A*02:19
# TEST PROTOCOL: IEDB peptide-MHC binding, purified MHC/competitive/fluorescence; filed as Kd, often an IC50 or EC50 that approximates it; bounds were set here for any values at or beyond the usual limits of such assays
# COND: source organism: Vibrio vulnificus YJ016
MEASURE NAME: Kd

- VTFGARASF: ≥ 20 µM

* * *

# TEST TARGET: HLA-A*11:01
# TEST PROTOCOL: IEDB peptide-MHC binding, purified MHC/competitive/fluorescence; bounds were set here for any values at or beyond the usual limits of such assays
# COND: source organism: Vaccinia virus Copenhagen
MEASURE NAME: IC50 (µM)

• AIITPIVFY = 0.941

* * *

# TEST TARGET: HLA-B*15:01
# TEST PROTOCOL: IEDB peptide-MHC binding, purified MHC/competitive/radioactivity; filed as Kd, often an IC50 or EC50 that approximates it; bounds were set here for any values at or beyond the usual limits of such assays
# COND: source organism: Dengue virus 4 Dominica/814669/1981
pKd: −log10 of the molar value.
MEASURE NAME: pKd

* LMYADDTAGW | 7.38

* * *

# TEST TARGET: HLA-A*23:01
# TEST PROTOCOL: IEDB peptide-MHC binding, purified MHC/competitive/radioactivity; filed as Kd, often an IC50 or EC50 that approximates it; bounds were set here for any values at or beyond the usual limits of such assays
# COND: source organism: Dengue virus 4 Philippines/H241/1956
pKd: −log10 of the molar value.
MEASURE NAME: pKd

• RHERGRPLLF = 6.61
• DYQGKTVWF = 6.09

* * *

# TEST TARGET: HLA-A*01:01
# TEST PROTOCOL: IEDB peptide-MHC binding, purified MHC/direct/fluorescence; filed as Kd, often an IC50 or EC50 that approximates it; bounds were set here for any values at or beyond the usual limits of such assays
# COND: source organism: Salmonella enterica subsp. enterica serovar Typhimurium
MEASURE NAME: Kd

- NSRHNAQHK: ≥ 20 µM

* * *

# TEST TARGET: HLA-A*26:01
# TEST PROTOCOL: IEDB peptide-MHC binding, purified MHC/direct/fluorescence; filed as Kd, often an IC50 or EC50 that approximates it; bounds were set here for any values at or beyond the usual limits of such assays
# COND: source organism: Yersinia enterocolitica subsp. enterocolitica 8081
MEASURE NAME: Kd

* KSRQGDTKV | ≥ 20 µM

* * *

# TEST TARGET: HLA-B*57:01
# TEST PROTOCOL: IEDB peptide-MHC binding, purified MHC/competitive/fluorescence; filed as Kd, often an IC50 or EC50 that approximates it; bounds were set here for any values at or beyond the usual limits of such assays
# COND: source organism: Bacillus cereus G9241
MEASURE NAME: Kd

* DEEAINLFH | ≥ 20 µM

* * *

# TEST TARGET: HLA-A*68:01
# TEST PROTOCOL: IEDB peptide-MHC binding, purified MHC/competitive/radioactivity; filed as Kd, often an IC50 or EC50 that approximates it; bounds were set here for any values at or beyond the usual limits of such assays
# COND: source organism: Vaccinia virus WR
MEASURE NAME: Kd (µM)

- KLFKKTDFK: 6.28
- HSNLTETFR: 0.000414
- DISKLTNFK: 0.00121
- DLTALLSCIR: 0.0109
- ELQSVLVTTY: 1.48
- SILDRIDTR: 0.189
- DVLEIINDK: 0.72
- YIPGTSVIR: 0.0404
- LLKYAGLTIK: 3.15
- SIKIKQDVR: 0.316
- NTVVRDFENY: 0.235
- CIPSRSKMLK: 0.0279
- FITKEIKNR: 0.276
- RQQLEDIFMR: 2.56
- KAFKNNLSR: 0.171
- QSYRQYRNY: 17.1
- FIKPVSDLY: 0.252
- TLVPVLEKK: 0.117
- NSSIISLFY: 0.125
- WIKNLETYTR: 0.0381
- SVFKGFSDK: 0.00549
- ISIYSRPKIK: 1.73
- IIKHIYEQY: 2.18
- PMPYMISTY: 1.34
- KSLLLLNTR: 16.9
- KLCKNHAEK: 0.986
- STVKTNLYMK: 0.00227
- QALNSVANR: 0.0557
- VFSFWLLCK: 0.298
- LIPVSEVLLK: 1.21
- IMLPESDLDK: 1.67
- SSGFYFEIAR: 0.0133
- IIVAGFSGK: 1.44
- NQNLIPSTVK: 0.406
- KMSTDNAVY: 11.6
- YTHGIVFDGK: 0.00456
- MLPESDLDK: 1.24
- CICYGSYSLY: 1.58

* * *

List of Kd values.
# TEST TARGET: HLA-B*40:01
# TEST PROTOCOL: IEDB peptide-MHC binding, purified MHC/competitive/radioactivity; filed as Kd, often an IC50 or EC50 that approximates it; bounds were set here for any values at or beyond the usual limits of such assays
# COND: source organism: Mammarenavirus juninense
MEASURE NAME: Kd

• SDTQIPGVC = ≥ 65.6 µM
• DETKKQVNLM = 14.6 µM
